B1: S100A14 (parent)
chain: KIANLGSCNDSKLEFRSFWELIGE

- Variants of: B1
- Experiment Description: protein stability index of a GFP-peptide fusion (GPS, HEK-293T) (PSI 1-6); higher = more stable;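 also: lentivirally expressed fusions sorted by FACS into six bins by GFP to DsRed ratio, PSI derived from sequencing read proportions per bin multiplied by bin number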
- Condition Parameters: c terminus: a fixed tail appended
Label Fulfilled for high-side protein stability index (at or above 2) and Not fulfilled for low-side protein stability index (below it).

Please review the following examples before continuing.
KIANLGSCNDSKLEFSSFWELIGE : Fulfilled
KIANLGSFNDSKLEFRSFWELIGE : Not fulfilled
KIANLGSCNDSKLEFRSFNELIGE : Fulfilled

Q: Is reported protein stability index greater than or equal to 2 here: `KIANLYSCNDSKLEFRSFWELIGE`
Ans: Not fulfilled

Q: Could you please find out whether `KIANLGGCNDSKLEFRSFWELIGE` has protein stability index that meets 2 or exceeds it?
Ans: Not fulfilled

Q: Has `KIANLGSCNDSKLEFRSFWELGGE` a recorded protein stability index greater than or equal to 2?
Ans: Fulfilled

Q: Identify whether the reported protein stability index of the following variant is 2 or greater: `KIPNLGSCNDSKLEFRSFWELIGE`
Ans: Not fulfilled
